System: SK-N-MC (neuroepithelioma) cells
Assay: MTT assay of cell viability, SK-N-MC
Format: cell-based
Settings: 48 h exposure, in the presence of human holotransferrin
Parameter: IC50. Scope: all listed entries.

| smiles str | IC50, µM |
| --- | --- |
| NC(=S)NN=Cc1ccccc1SSc1ccccc1C=NNC(N)=S | 8.91 |
| S=C(NN=Cc1ccccc1S)Nc1ccccc1 | 5.19 |
| S=C(NN=Cc1ccccc1SSc1ccccc1C=NNC(=S)Nc1ccccc1)Nc1ccccc1 | 6.81 |
